Data provenance is the supplement of paper PMC9694430.

# Tested on: LOC_OS05G28520-cb001
# Experimental Details: thermal shift delta Tm vs DMSO control; higher = stronger stabilization (binding);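 note: purified Escherichia coli-expressed rice kinase domain construct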
# Assay Context: 12.5 µM; protein concentration 2 µM
Result Type: thermal shift delta Tm (°C)

Compound | System Name | Numeric Readout
NC1(c2ccc(-c3nc4ccn5c(=O)[nH]nc5c4cc3-c3ccccc3)cc2)CCC1 | LOC_OS05G28520-cb001 | 0.28
COc1cc(Nc2ncc(F)c(Nc3ccc4c(n3)N(COP(=O)(O)O)C(=O)C(C)(C)O4)n2)cc(OC)c1OC [R788 (Fostamatinib) Disodium] | LOC_OS05G28520-cb001 | 0.86
CN(c1ccccc1CNc1nc(Nc2ccc3c(c2)CC(=O)N3)ncc1C(F)(F)F)S(C)(=O)=O | LOC_OS05G28520-cb001 | 2.32
CC(=O)c1c(C)c2cnc(Nc3ccc(N4CCNCC4)cn3)nc2n(C2CCCC2)c1=O | LOC_OS05G28520-cb001 | 0.05
C[C@H]1[C@H](C)CC[C@]2(C(=O)O)CC[C@]3(C)C(=CC[C@@H]4[C@@]5(C)C[C@@H](O)[C@H](O)[C@@](C)(CO)[C@@H]5CC[C@]43C)[C@H]12 | LOC_OS05G28520-cb001 | 0.47
C[C@@H]1COCCN1c1cc(C2([S@](C)(=N)=O)CC2)nc(-c2cc[nH]c3nccc2-3)n1 | LOC_OS05G28520-cb001 | 0.65
CNC(=O)CN1CCC(Oc2cc3c(Nc4cccc(Cl)c4F)ncnc3cc2OC)CC1 | LOC_OS05G28520-cb001 | -0.17
CO[C@H]1C[C@@H]2CC[C@@H](C)[C@@](O)(O2)C(=O)C(=O)N2CCCC[C@H]2C(=O)O[C@H]([C@H](C)C[C@@H]2CC[C@@H](OCCO)[C@H](OC)C2)CC(=O)[C@H](C)/C=C(\C)[C@@H](O)[C@@H](OC)C(=O)[C@H](C)C[C@H](C)/C=C/C=C/C=C/1C [Everolimus (RAD001)] | LOC_OS05G28520-cb001 | 0.62
O=C(Nc1ccc(OC(F)(F)F)cc1)c1sccc1NCc1ccnc2ccccc12 | LOC_OS05G28520-cb001 | 0.05
CCN1CCN(Cc2ccc(C(=O)Nc3ccc(C)c(Oc4ccc5c(c4)CC(=O)N5)c3)cc2C(F)(F)F)CC1 | LOC_OS05G28520-cb001 | 0.4
CS(=O)(=O)N1CCN(Cc2cc3nc(-c4cccc5[nH]ncc45)nc(N4CCOCC4)c3s2)CC1 | LOC_OS05G28520-cb001 | 0.48
CCC[C@H](NC(=O)/C(C#N)=C/c1cccc(Br)n1)c1ccccc1 [Degrasyn (WP1130)] | LOC_OS05G28520-cb001 | -0.84
Oc1c(F)cc(-c2cnccc2-c2ccc(N3CCOCC3)cc2)cc1F | LOC_OS05G28520-cb001 | 0.43
COc1ccc(-c2ccc3ncc4c(c3c2)n(-c2ccc(N3CCNCC3)c(C(F)(F)F)c2)c(=O)n4C)cn1 | LOC_OS05G28520-cb001 | 0.28
CCn1cc(-c2ccnc3[nH]c(-c4cccc(CN(C)C)c4)cc23)c(-c2ccc(NC(=O)N(C)C)cc2)n1 | LOC_OS05G28520-cb001 | 0.42

====

// values below are reported thermal shift delta Tm
# System: LOC_OS06G22820-cb001
# Sequence (as listed by the source): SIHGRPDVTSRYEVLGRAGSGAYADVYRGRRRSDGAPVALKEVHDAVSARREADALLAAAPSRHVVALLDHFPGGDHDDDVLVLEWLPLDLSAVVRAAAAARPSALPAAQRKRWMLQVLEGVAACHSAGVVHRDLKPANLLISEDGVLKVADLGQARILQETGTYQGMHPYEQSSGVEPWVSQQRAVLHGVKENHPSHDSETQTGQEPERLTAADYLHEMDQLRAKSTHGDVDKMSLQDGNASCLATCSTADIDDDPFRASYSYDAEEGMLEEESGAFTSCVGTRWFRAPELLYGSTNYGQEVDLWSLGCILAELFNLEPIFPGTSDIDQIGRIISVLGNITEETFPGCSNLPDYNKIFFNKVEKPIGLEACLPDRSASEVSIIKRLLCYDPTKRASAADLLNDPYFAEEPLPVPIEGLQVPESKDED
# Experimental Details: thermal shift delta Tm vs DMSO control; higher = stronger stabilization (binding)
# Assay Context: 12.5 µM; protein concentration 2 µM
Counter-ions that a name gives are not always drawn.
Result Type: thermal shift delta Tm (°C)

Compound | System Name | Readout Unit | Numeric Readout
CCCCCCCCCCCCc1ccc(S(=O)(=O)Nc2nncs2)cc1 | LOC_OS06G22820-cb001 | °C | 0.75
CC(C)(C)c1nc(-c2ccc(NC(=O)Nc3cccc(C(F)(F)F)c3)c3ccccc23)c2c(N)nccn12 | LOC_OS06G22820-cb001 | °C | 0.73
CN1CCC(CNc2ccc3ncc(-c4cccc(OC(F)(F)F)c4)n3n2)CC1 [SGI-1776 free base] | LOC_OS06G22820-cb001 | °C | 0.41
C[C@H]1CNCCCN1S(=O)(=O)c1cccc2cncc(F)c12 [Ripasudil (K-115) hydrochloride dihydrate] | LOC_OS06G22820-cb001 | °C | 0.46
Cc1ccc(NC(=O)c2ccc(CN3CCN(C)CC3)cc2)cc1Nc1nc(-c2cccnc2)cs1 | LOC_OS06G22820-cb001 | °C | 0.52
CC(C)(CCCCCC(O)CCCCCC(C)(C)C(=O)O)C(=O)O | LOC_OS06G22820-cb001 | °C | 0.48
CCn1c(=O)c(-c2cc[nH]n2)cc2c(C)nc(N)nc21 | LOC_OS06G22820-cb001 | °C | 0.06
O=C(Nc1cccc(Nc2ncc(Br)c(NCCc3cnc[nH]3)n2)c1)N1CCCC1 | LOC_OS06G22820-cb001 | °C | 0.67
O=S(=O)(c1cccc2c(I)cccc12)N1CCCNCC1 | LOC_OS06G22820-cb001 | °C | 0.37
Cc1cc(C(=O)NOCCO)c(Nc2ccc(I)cc2F)n(C)c1=O | LOC_OS06G22820-cb001 | °C | 0.38
Cc1cc(Nc2ncc(Cl)c(Nc3ccccc3S(=O)(=O)C(C)C)n2)c(OC(C)C)cc1C1CCNCC1 | LOC_OS06G22820-cb001 | °C | 0.68
NC(=O)c1cnc2[nH]ccc2c1N[C@@H]1[C@@H]2CC3C[C@H]1C[C@@](O)(C3)C2 | LOC_OS06G22820-cb001 | °C | 0.43
CNC(=O)c1cccc(-c2ccc3c(N4CCOC[C@@H]4C)nc(N4CCOC[C@@H]4C)nc3n2)c1 | LOC_OS06G22820-cb001 | °C | 0.59
Cc1cccc(Nc2nc(NC3CCCCC3N)ncc2C(N)=O)c1 (stereo not drawn) | LOC_OS06G22820-cb001 | °C | 0.81
CC(=O)O/N=C1/C(c2c(O)[nH]c3cc(Br)ccc23)=Nc2ccccc21 | LOC_OS06G22820-cb001 | °C | -0.05
Cc1cc(Nc2cc(N3CCN(C)CC3)nc(Sc3ccc(NC(=O)C4CC4)cc3)n2)n[nH]1 | LOC_OS06G22820-cb001 | °C | 0.83
CN1CC[C@H](c2c(O)cc(O)c3c(=O)cc(-c4ccccc4Cl)oc23)[C@H](O)C1 [Flavopiridol (Alvocidib)] | LOC_OS06G22820-cb001 | °C | 1.43
CC(C)(C)c1ccc(S(=O)(=O)/C=C/C#N)cc1 | LOC_OS06G22820-cb001 | °C | -0.39

====

Reported values of thermal shift delta Tm for individual entries
# Tested on: LOC_OS06G22820-cb001
# Experimental Details: thermal shift delta Tm vs DMSO control; higher = stronger stabilization (binding)
# Assay Context: 12.5 µM; protein concentration 2 µM
Result Type: thermal shift delta Tm (°C)

Structure Smiles String | Result Type | Numeric Readout
Cc1cc(CN2CCN(c3c(Br)cnc4nc(-c5ccc(N6CCN(C)CC6)cc5)[nH]c34)CC2)no1 | thermal shift delta Tm | 0.11
Cc1cc(Nc2cc(N)ncn2)c(=O)n2c1C(=O)NC21CCCCC1 | thermal shift delta Tm | 0.25
NC(=O)Nc1cc(-c2cccc(F)c2)sc1C(=O)N[C@H]1CCCNC1 | thermal shift delta Tm | 0.87
O=C1NCCc2[nH]c(-c3ccncc3)cc21 | thermal shift delta Tm | 0.55
COc1cccc(-n2c(=O)[nH]c3cc(Cl)n(-c4ccc(-c5cccc(OC)c5O)cc4)c3c2=O)c1 | thermal shift delta Tm | 0.65

====

# System: LOC_OS03G12390-cb001
# Experimental Details: thermal shift delta Tm vs DMSO control; higher = stronger stabilization (binding)
# Assay Context: 12.5 µM; protein concentration 2 µM
The following molecules are shown together with reported thermal shift delta Tm values.

Molecule | thermal shift delta Tm (°C)
COc1ccc(-c2ccc3ncc4c(c3c2)n(-c2ccc(N3CCNCC3)c(C(F)(F)F)c2)c(=O)n4C)cn1 | -0.28
C=CC(=O)Nc1cccc(Nc2nc(Nc3ccc(N4CCN(C(C)=O)CC4)cc3OC)ncc2C(F)(F)F)c1 [Rociletinib (CO-1686, AVL-301)] | 11.1
CN1CCN(Cc2ccc(-c3cnc4[nH]cc(-c5ccc6[nH]ccc6c5)c4c3)cc2)CC1 | 4.74
CSc1cccc(Nc2ncc3cc(-c4c(Cl)cccc4Cl)c(=O)n(C)c3n2)c1 | 0.1

====

# Tested on: LOC_OS01G14860-cb001
# Experimental Details: thermal shift delta Tm vs DMSO control; higher = stronger stabilization (binding)
# Assay Context: 12.5 µM; protein concentration 2 µM

Molecule | System Name | thermal shift delta Tm, °C
CC(C)(O)CNc1ncc(-c2ccnc(Nc3ccnc(Cl)c3)n2)c(CC2CC2)n1 | LOC_OS01G14860-cb001 | 2.06
CN1CCN(c2ccc(-c3ccncc3-c3cc(F)c(O)c(F)c3)cc2)CC1 | LOC_OS01G14860-cb001 | 0.46
Nc1ccc(C(=O)Nc2cccc(-c3nc(N4CCOCC4)c4oc5ncccc5c4n3)c2)cn1 | LOC_OS01G14860-cb001 | 0.58
COc1ccc(S(=O)(=O)N(C(C)=O)c2ccccc2/C=C/c2cc[n+]([O-])cc2)cc1 | LOC_OS01G14860-cb001 | 0.58
C[C@H](CN(C)C)Oc1nc(Nc2cc3cccc(Cl)c3cn2)cnc1C#N | LOC_OS01G14860-cb001 | 0.9
CCN(CC)CCCC(C)Nc1ccnc2cc(Cl)ccc12 (stereo not given) [Chloroquine Phosphate] | LOC_OS01G14860-cb001 | 0.13
O=C(O)c1ccc2c3c1cccc3c(=O)n1c3ccccc3nc21 | LOC_OS01G14860-cb001 | 1.4
N#CC[C@H](C1CCCC1)n1cc(-c2ncnc3[nH]ccc23)cn1 | LOC_OS01G14860-cb001 | 1.62
CNC(=O)c1ccc(-c2cnc3ncc(Cc4ccc5ncccc5c4)n3n2)cc1F | LOC_OS01G14860-cb001 | 0.29
CC(C)(C)c1ccc(S(=O)(=O)/C=C/C#N)cc1 | LOC_OS01G14860-cb001 | -0.21
